- Test system: M14
- TEST NAME: NCI tumour cell line growth inhibition, 48 h
Activity calls are given as the source filed them. Cut-off read from the data, not from the text of the source: active = GI50 up to about 1.1 µM and inactive = higher.
REPORTED ENDPOINT: GI50

# example entries with known answers
> print(dat)
                                 mol.smiles  reported.endpoint              result
1  Nc1ccc2c(SCc3ccc([N+](=O)[O-])cc3)c3ccccc3nc2c1               GI50  11.4 µM (inactive)
2   Cn1cnc([N+](=O)[O-])c1Sc1nc2ccccc2[nH]1               GI50  24.2 µM (inactive)
3         O=C(/C=C/c1ccccc1)Oc1cccc2cccnc12               GI50  4.11 µM (inactive)
4  N[C@H]1CCN(c2c(F)cc3c(=O)c(C(=O)O)cn4c3c2Oc2cc3c(ccc5ccccc53)cc2-4)C1               GI50  4.68 µM (inactive)
5  Fc1ccc(NCn2nc(COc3ccccc3Cl)n(/N=C/c3ccc(-c4ccc(Cl)cc4Cl)o3)c2=S)cc1Cl               GI50  28.5 µM (inactive)
6  COc1ccc(/C=C/C(=O)c2cccc(C(=O)/C=C/c3ccc(OC)c(OC)c3)n2)cc1OC               GI50  32.7 µM (inactive)

Continue with the next molecule.
Request: If you can, please state the reported GI50 value of O=S(=O)(c1cnccc1N1CCN(CCO)CC1)N1CCCC1 .
Result: > 100 µM (inactive)

* * *

- System: NCI-H226
- TEST NAME: NCI tumour cell line growth inhibition, 48 h
Active and inactive are the calls of the source. No stated cut-off is given here; in the data, active = GI50 up to about 1.1 µM and inactive = higher.
Entry note: the call must match one of active, inactive

Solved cases (10 shown):
MOLECULE	QUALITATIVE LABEL
CC1(C)C/C=C\CCC(O)C(O)CCC(C)(C)C1=O (stereo not given)	inactive
COC(=O)C12CC(C3CC31)C1CC12 (stereo not given)	inactive
NC(=O)/N=C(\N)NC(=O)c1ccccc1	inactive
O=C1CSC(c2cc3cc(Br)ccc3nc2Cl)N1c1ccc(F)c(Cl)c1 (stereo not given)	inactive
COc1ccc2ccc3c(c2c1)CN1CCc2cc(OC)c(OC)cc2C1C3 (stereo not given)	inactive
C#Cc1cccc(N2C(=O)CCC2=O)c1	inactive
C[s+]1c2ccccc2c2ccccc21	inactive
OC(c1cc(C23CC4CC(CC(C4)C2)C3)nc2c(Cl)cc(Cl)cc12)C1CCCCN1 (stereo not given)	inactive
Brc1ccc2c(c1)[C@H]1CCc3c([nH]c4ccccc34)[C@H]1N2	inactive
Cc1c(Cl)c(S(N)(=O)=O)cc2c1N=CNS2(=O)=O	inactive

Request: Write down the call the test reported for this molecule. Item: Cc1nc2nnnn2c2c1C(=O)Nc1ccccc1N2
Result: inactive

Request: Write down the call the test reported for this molecule. Item: COc1ccc(/C=C(\NC(=O)c2ccccc2)c2nc3ccccc3[nH]2)cc1OC
Result: inactive

Request: Write down the call the test reported for this molecule. Item: Cc1csc(NC23CC4CC(CC(C4)C2)C3)[n+]1C(P(=O)([O-])O)P(=O)(O)O (stereo not given)
Result: inactive

Request: Write down the call the test reported for this molecule. Item: CCOC(=O)c1csc(NC(=O)CN2CCN(c3ccccc3)CC2)n1
Result: inactive

Request: Write down the call the test reported for this molecule. Item: C/C=C(\N=C=S)C(=O)OC1C(COC(C)=O)OC([C@]2(O)CC(=O)C(N)=C(C(=O)O)C2=O)C(O)C1OC1CC(OC)C(O)([C@@H](C)OC(=O)[C@@H](C)CC)C(C)O1 (stereo not given in full)
Result: inactive

Request: Write down the call the test reported for this molecule. Item: CC(C)(C)[Si](Nc1ccccc1)(c1ccccc1)c1ccccc1
Result: inactive

Request: Write down the call the test reported for this molecule. Item: [O-][S+]1c2ccccc2N=C(c2ccc3ccccc3c2)CC1C1=CC=CCC1 (stereo not given)
Result: inactive

Request: Write down the call the test reported for this molecule. Item: CC(C)(C)CC(C)(C)c1ccc(O)c(C[N+](C)(C)[O-])c1
Result: inactive

Request: Write down the call the test reported for this molecule. Item: Cc1c(-c2ccccc2)c(C#N)c2nnn(-c3cccc(Cl)c3)c(=O)n12
Result: inactive

Request: Write down the call the test reported for this molecule. Item: O=C1Cc2c([nH]c3ccc([N+](=O)[O-])cc23)-c2ccccc2N1
Result: active

* * *

- System: NCI-H460
- TEST NAME: NCI tumour cell line growth inhibition, 48 h
The source made the active and inactive calls. Cut-off read from the data, not from the text of the source: active = GI50 up to about 1.1 µM and inactive = higher.
Entry note: the call must match one of 1.0 (active), 0.0 (inactive)

Solved cases (6 shown):
> print(dat)
                                   compound  qualitative.label
1  COc1cc(C[P+](c2ccccc2)(c2ccccc2)c2ccccc2)cc(OC)c1OC                0.0
2  Cc1ccc(C)n1-c1ccccc1C1C=CN(C(=O)OC(C)(C)C)C=C1                0.0
3  CCCC[C@H]1C(=O)O[C@H](C)[C@H](NC(=O)c2cccc(NC=O)c2O)C(=O)O[C@@H](C)[C@@H]1OC(=O)CC(C)C [ANTIMYCIN A3]                1.0
4  COc1ccc2c(c1)C(=O)N1CCOC1C2C(=O)O (stereo unspecified)                0.0
5  CSC[S+]([O-])C[C@H](CO)NC(=O)/C=C/c1c(C)[nH]c(=O)[nH]c1=O (stereo partly specified)                1.0
6                         O=C(O)CCCN1CCCCC1                0.0

Request: Write down the call the test reported for this compound. Item: COc1cc(CNc2cnc3ccc(N)cc3n2)cc(OC)c1OC
Result: 0.0

Request: Write down the call the test reported for this compound. Item: C=C1C(=O)C23C(CC(OC(C)=O)C1[C@@H]2OC(C)=O)C1(C)C(OC(C)=O)CCC(C)(C)C1C[C@@H]3OC(C)=O (stereo partly specified)
Result: 0.0

Request: Write down the call the test reported for this compound. Item: CCCCP(CCCC)(CCCC)=C(C(=O)OC)C(C(=O)OC)=C1SC(C(=O)OC)=C(C(=O)OC)S1
Result: 0.0

Request: Write down the call the test reported for this compound. Item: Cc1cccc2c(N)c3cccc(C(=O)NCCN4CCOCC4)c3nc12
Result: 1.0

Request: Write down the call the test reported for this compound. Item: Cc1nc2nnnn2c2c1C(=O)Nc1ccccc1N2
Result: 0.0

* * *

# reported GI50; entries follow
- Tested on: OVCAR-3
- TEST NAME: NCI tumour cell line growth inhibition, 48 h
The source made the active and inactive calls. Rule as the data show it: active = GI50 up to about 1.1 µM and inactive = higher.

# example entries with known answers
> print(dat)
                                    compound  reported.endpoint                result
 1  CCOC(=O)/C=C/[C@H](O[Si](c1ccccc1)(c1ccccc1)c1ccccc1)C(C)(C)C               GI50  > 31.6 µM (inactive)
 2          Cn1c(=S)[nH]c(N)c(Cc2ccccc2)c1=O               GI50   > 100 µM (inactive)
 3  COc1ccc(NC(C(N)=O)c2cc3cc(Br)ccc3nc2Cl)cc1 (stereo not given)               GI50    60.7 µM (inactive)
 4  OCC1OC2c3ccccc3COC2C1OCc1ccccc1 (stereo not given)               GI50   > 100 µM (inactive)
 5  C1=N\c2ccc(cc2)/N=C\c2ccccc2OCc2cccc(n2)COc2ccccc2/1               GI50   > 100 µM (inactive)
 6  C=C(C)CC(C)(c1cc2ccccc2n1C)N1CCOCC1 (stereo not given)               GI50    66.5 µM (inactive)
 7  O=C(O)/C=C/C(=O)N1C/C(=C\c2ccccc2)C(=O)/C(=C/c2ccccc2)C1               GI50    7.26 µM (inactive)
 8  O=C1CN(c2cccc(Cl)c2)C(=O)CN1NCNN1CC(=O)N(c2cccc(Cl)c2)CC1=O               GI50   > 100 µM (inactive)
 9  CCOC(=O)/C(=C\c1ccc(N(CCC#N)CCC#N)cc1C)NC(=O)/C=C/c1ccccc1               GI50   > 100 µM (inactive)
10  CCOC(=O)c1csc(NC(=O)CN2CCN(c3ccccc3)CC2)n1               GI50   > 100 µM (inactive)

Request: If you can, please state the reported GI50 value of CCCC[C@H]1C(=O)O[C@H](C)[C@H](NC(=O)c2cccc(NC=O)c2O)C(=O)O[C@@H](C)[C@@H]1OC(=O)CC(C)C [ANTIMYCIN A3] .
Result: 2.38 µM (inactive)

Request: If you can, please state the reported GI50 value of CC[C@H](C)N(CCN)C(=O)c1cc2ccccc2c(-c2ccccc2Cl)n1 .
Result: 16.6 µM (inactive)

Request: If you can, please state the reported GI50 value of COc1cc2[nH]c(=O)[nH]c2c2c(C)c[nH]c12 .
Result: > 100 µM (inactive)

Request: If you can, please state the reported GI50 value of O=C1C[C@@H](Sc2ccccc2)C2(OCCO2)[C@H]2ON3CCC[C@@H]3[C@@H]12 .
Result: 1.68 µM (inactive)

Request: If you can, please state the reported GI50 value of O=c1[nH]nc(NCCc2ccccc2)c2nnn(Cc3ccccc3)c12 .
Result: > 100 µM (inactive)

Attribution: ChEMBL document CHEMBL1201862
